Target: T1, Nluc-IL23R fusion protein (human, UniProt Q5VWK5 22-629)
T1 construct: range 22-629; expressed with a secretion signal in HEK293 cells; used as crude membrane preparation; also called hIL-23R; human IL-23R; not shown: Nanoluc protein from the expression plasmid N1371 (Promega), N-terminal of IL-23R
T1 sequence (looked up): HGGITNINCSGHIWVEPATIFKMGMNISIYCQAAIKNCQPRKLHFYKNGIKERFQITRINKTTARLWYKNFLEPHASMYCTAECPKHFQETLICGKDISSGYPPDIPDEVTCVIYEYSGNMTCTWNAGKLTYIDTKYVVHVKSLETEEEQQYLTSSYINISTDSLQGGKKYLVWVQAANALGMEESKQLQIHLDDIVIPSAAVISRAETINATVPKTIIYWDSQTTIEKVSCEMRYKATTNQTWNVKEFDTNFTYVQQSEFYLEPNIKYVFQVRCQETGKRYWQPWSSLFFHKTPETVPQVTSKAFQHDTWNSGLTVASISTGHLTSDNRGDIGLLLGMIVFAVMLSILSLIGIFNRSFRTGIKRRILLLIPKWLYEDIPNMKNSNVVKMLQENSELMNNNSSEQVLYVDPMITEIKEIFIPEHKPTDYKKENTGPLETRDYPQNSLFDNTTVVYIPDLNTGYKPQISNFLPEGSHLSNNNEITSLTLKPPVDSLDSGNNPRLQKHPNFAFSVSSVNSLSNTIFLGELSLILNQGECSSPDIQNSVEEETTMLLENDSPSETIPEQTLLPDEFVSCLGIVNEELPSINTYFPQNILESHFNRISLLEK
Test: BRET competition vs TAMRA-labelled peptide, Nluc-IL23R membranes
*1 amine or outer side, *2 acyl side, *3 side chain or, on linkers, in order; H or OH if unused. Bridges are numbered along the chain shown (N, C = ends). Where no end group is shown, it is not given here. [ ]: non-standard residue; d: D form. 4‑Aminomethyl‑phenylacetyl = 4-aminomethyl-phenylacetyl unit, its amine closes the lactam, O=C(Cc1ccc(CN[*:1])cc1)[*:2]; 2Nal = N[C@@H](Cc1ccc2ccccc2c1)C(=O)O; AEF = NCCOc1ccc(C[C@H](N)C(=O)O)cc1; 3Pal = N[C@@H](Cc1cccnc1)C(=O)O; αMeL = CC(C)C[C@](C)(N)C(=O)O; β3hL = CC(C)C[C@H](N)CC(=O)O; NMeS = CN[C@@H](CO)C(=O)O; Q(Me) = not defined here; Dab = NCC[C@H](N)C(=O)O
measured.property: % displacement (hIL-23R binding) (%)

IN: Could you share which % displacement (hIL-23R binding) value was measured for [4‑Aminomethyl‑phenylacetyl][NMeS]EWQ[Dab][AEF][2Nal][αMeL]E[Dab][3Pal]-NHMe (lactam (positions not given here); lactam 3-6; not fully specified (bridges)) [Compound 18] ?
OUT: 96

IN: Moving on to [4‑Aminomethyl‑phenylacetyl]SEWQ[Dab][AEF][2Nal][αMeL]E[Dab][3Pal][β3hL]-NH2 (lactam N-10, 3-6; SMILES CC(C)C[C@@H](CC(N)=O)NC(=O)[C@H](Cc1cccnc1)NC(=O)[C@H](CCN)NC(=O)[C@@H]1CCC(=O)NCc2ccc(cc2)CC(=O)N[C@@H](CO)C(=O)N[C@H]2CCC(=O)NCC[C@H](NC(=O)[C@H](CCC(N)=O)NC(=O)[C@H](Cc3c[nH]c4ccccc34)NC2=O)C(=O)N[C@@H](Cc2ccc(OCCN)cc2)C(=O)N[C@@H](Cc2ccc3ccccc3c2)C(=O)N[C@@](C)(CC(C)C)C(=O)N1) [Compound 11]
OUT: 103

IN: Moving on to [4‑Aminomethyl‑phenylacetyl]SEWQ[Dab][AEF][2Nal][αMeL]E[Dab][3Pal][dH]-NH2 (lactam N-10, 3-6; SMILES CC(C)C[C@]1(C)NC(=O)[C@H](Cc2ccc3ccccc3c2)NC(=O)[C@H](Cc2ccc(OCCN)cc2)NC(=O)[C@@H]2CCNC(=O)CC[C@H](NC(=O)[C@H](CO)NC(=O)Cc3ccc(cc3)CNC(=O)CC[C@@H](C(=O)N[C@@H](CCN)C(=O)N[C@@H](Cc3cccnc3)C(=O)N[C@H](Cc3c[nH]cn3)C(N)=O)NC1=O)C(=O)N[C@@H](Cc1c[nH]c3ccccc13)C(=O)N[C@@H](CCC(N)=O)C(=O)N2) [Compound 10]
OUT: 91

IN: Moving on to [4‑Aminomethyl‑phenylacetyl]SEW[Q(Me)][Dab][AEF][2Nal][αMeL]E[Dab][3Pal]-NHMe (lactam N-10, 3-6; reading uncertain) [Compound 29]
OUT: 96

IN: Moving on to [4‑Aminomethyl‑phenylacetyl]SCWQC[AEF][2Nal][αMeL]E[Dab][3Pal]-NH2 (lactam N-10; bridge 3-6; not fully specified (bridges); printed as [4-Aminomethyl-phenylacetyl](1c)*SC(2a)WQC(2a)[Y(2-aminoethoxy)][2-Nal][2-Me-Leu]E(1c)[Dab][3-(3-Pyridyl)-Ala]-[NH2]) [Ref 120]
OUT: 94

Provenance of the data: patent EP4471049A1
